System: Yap1 mRNA
assay: Antisense inhibition of human Yap1 in A-431 cells by cEt gapmers, single dose (Example 2, RTS4814)
Format: cell-based
conditionContext: Table 24; Yap1 mRNA as percent of untreated control; 3-10-3 cEt gapmers targeting SEQ ID NO.: 1, and 2
Strand notation (5' to 3'): a small letter for the sugar, then the base; units joined by * are phosphorothioate-linked, units joined directly phosphodiester-linked; [ ] holds rarer units or linkages, { } end groups; capitals alone tell only the bases. k = constrained ethyl (cEt); [5mC] = 5-methylcytosine; d = 2'-deoxy (DNA)
Think of 30 % UTC as a floor: if YAP1 (% UTC) stands on it or above, it is T; beneath it, F.

Exam item: Quick check, YAP1 (% UTC) >= 30 % UTC? 1074186 (antisense kG*kG*kG*d[5mC]*d[5mC]*dG*dG*dT*dT*dG*dA*dG*dG*k[5mC]*kG*kG) [Compound 1074186]
Marked response: T

Exam item: Also need 1075210 (antisense kG*kT*kA*dT*dT*dT*dT*dA*dA*d[5mC]*d[5mC]*dT*dA*kA*kA*k[5mC]) [Compound 1075210] , thanks.
Marked response: T

Exam item: Further, for 1075818 (k[5mC]*kA*kT*dA*dA*d[5mC]*dT*dT*dA*dG*dA*dA*d[5mC]*k[5mC]*kA*kT; antisense) [Compound 1075818] ?
Marked response: T

Exam item: Now the substance 1075594 (kT*kG*kA*dG*dA*dA*dT*dA*dT*dT*d[5mC]*d[5mC]*dT*k[5mC]*k[5mC]*k[5mC]; antisense) [Compound 1075594]
Marked response: T

Exam item: # repeat for 1075370 (k[5mC]*kT*kT*dA*d[5mC]*dG*dA*dA*dT*d[5mC]*dA*d[5mC]*dA*kT*kA*kT; antisense) [Compound 1075370]
Marked response: T

Exam item: Consider next the substance 1075658 (kG*kT*kA*dA*dA*dA*dA*dA*d[5mC]*dG*dG*dT*dT*kT*kT*kT; antisense) [Compound 1075658] in the same way.
Marked response: T

Exam item: Here is the next substance: 1076042 (k[5mC]*kT*kT*dA*dA*dG*d[5mC]*dA*dA*dG*dA*dG*dT*k[5mC]*k[5mC]*kA; antisense) [Compound 1076042]
Marked response: T

Exam item: Next up: 1074858 (antisense kA*kA*k[5mC]*dA*dT*dT*dG*dG*dT*dA*d[5mC]*dT*dA*kT*kA*kT) [Compound 1074858]
Marked response: F

Exam item: Also, 1075114 (antisense kG*kT*kA*dT*dA*dA*dA*dT*dA*d[5mC]*d[5mC]*dA*dG*kG*kT*kA) [Compound 1075114] please.
Marked response: F

Exam item: Would you mind doing 1076394 (k[5mC]*k[5mC]*kT*dA*dA*dA*dT*dT*dA*dG*dA*d[5mC]*dT*kT*kG*kA; antisense) [Compound 1076394] as well?
Marked response: F

Exam item: // query: 1074986 (antisense k[5mC]*kT*kA*d[5mC]*dT*dG*dT*dA*dA*dT*d[5mC]*dA*d[5mC]*k[5mC]*kT*kT) [Compound 1074986]
Marked response: T

Exam item: Ok, now 1074282 (antisense k[5mC]*kG*kA*dG*dG*dG*dT*d[5mC]*dA*dA*dG*d[5mC]*d[5mC]*kT*kT*kG) [Compound 1074282]
Marked response: T

Exam item: Then this substance: 1074154 (antisense k[5mC]*k[5mC]*kA*d[5mC]*dG*dG*dG*d[5mC]*d[5mC]*dG*dA*dG*dG*kT*kG*kG) [Compound 1074154]
Marked response: T

Exam item: Can you handle 1074794 (k[5mC]*kA*kA*dA*dT*d[5mC]*dA*dA*dT*dG*dT*dG*d[5mC]*kT*k[5mC]*k[5mC]; antisense) [Compound 1074794] next?
Marked response: F

Exam item: Would you mind doing 1074890 (antisense kG*kA*kA*dG*dT*dT*dT*dA*dG*d[5mC]*d[5mC]*dT*dG*kA*kA*kG) [Compound 1074890] as well?
Marked response: T

Exam item: What do you have for 1076522 (antisense kG*k[5mC]*kA*d[5mC]*dT*dA*dA*dA*dG*dG*dA*dG*dT*k[5mC]*kA*kT) [Compound 1076522] ?
Marked response: T

Exam item: Would you mind doing 1074826 (kA*kA*kA*dT*d[5mC]*d[5mC]*dA*d[5mC]*d[5mC]*dT*dG*dA*dG*k[5mC]*kA*k[5mC]; antisense) [Compound 1074826] as well?
Marked response: T

Exam item: And the next one, 1075274 (antisense kA*kA*kT*dA*dA*dT*d[5mC]*d[5mC]*dA*dG*d[5mC]*d[5mC]*dT*kA*kG*kG) [Compound 1075274] ?
Marked response: T

Exam item: And 1076458 (antisense k[5mC]*kT*kT*dA*dA*dT*dT*dA*dG*d[5mC]*d[5mC]*dT*d[5mC]*kA*kG*kT) [Compound 1076458] ?
Marked response: F

Exam item: Also 1075018 (antisense k[5mC]*k[5mC]*kT*dT*dA*dA*dA*dG*dT*dG*dA*dT*dA*k[5mC]*kA*k[5mC]) [Compound 1075018] ?
Marked response: F

---

Field: % UTC (Yap1 mRNA). Provide a value for each of the substances that follow.
Tested on: Yap1 mRNA
assay: Dose-dependent inhibition of human Yap1 in A-431 cells (Example 8, 10,000 cells per well, RTS4814)
Format: cell-based
conditionContext: 2000.00 nM; A-431 cells
Strand notation (5' to 3'): a small letter for the sugar, then the base; units joined by * are phosphorothioate-linked, units joined directly phosphodiester-linked; [ ] holds rarer units or linkages, { } end groups; capitals alone tell only the bases. k = constrained ethyl (cEt); [5mC] = 5-methylcytosine; d = 2'-deoxy (DNA)
Provide the measurement as a number trailed by its unit.

Exam item: GET /values?readout=% UTC (Yap1 mRNA)&system=Yap1 mRNA&item= 1076534 (kA*k[5mC]*kT*dA*dT*dA*dA*dA*dG*d[5mC]*dA*dA*dT*kG*k[5mC]*kG; antisense) [compound 1076534]
Marked response: 10 % UTC

Exam item: What would you report for 1074548 (kA*kT*k[5mC]*dT*dA*d[5mC]*d[5mC]*dG*dT*dA*dT*dG*d[5mC]*k[5mC]*k[5mC]*kA; antisense) [compound 1074548] ?
Marked response: 8 % UTC

Exam item: Item: 1074453 (kG*kT*kG*dA*d[5mC]*dT*dA*dA*dT*dG*dA*dT*dA*kG*k[5mC]*kA; antisense) [compound 1074453]
Marked response: 5 % UTC

Exam item: Please answer likewise for 1074679 (antisense kT*k[5mC]*kT*dT*dA*dA*dT*d[5mC]*dT*dG*dT*dG*dG*k[5mC]*kT*kA) [compound 1074679]
Marked response: 5 % UTC

Exam item: Please give the result for 1075990 (k[5mC]*kG*kT*dT*dA*dT*dT*dA*dT*dG*d[5mC]*dA*dG*k[5mC]*kA*kA; antisense) [compound 1075990] too.
Marked response: 3 % UTC

Exam item: # repeat for 1075797 (kG*kA*kT*dA*dA*dT*d[5mC]*dA*dT*dG*dA*dT*dA*k[5mC]*kT*k[5mC]; antisense) [compound 1075797]
Marked response: 3 % UTC

---

Tested on: Yap1 mRNA
assay: Antisense inhibition of human Yap1 in SNU-449 cells by modified oligonucleotides, single dose (Example 5, RTS36584)
Format: cell-based
conditionContext: Table 39; SNU-449 cells, 10,000 cells per well, free uptake, 2,000 nM oligonucleotide, approx. 48 hours; RTS36584; normalized to RIBOGREEN; Yap1 mRNA relative to untreated control
Strand notation (5' to 3'): a small letter for the sugar, then the base; units joined by * are phosphorothioate-linked, units joined directly phosphodiester-linked; [ ] holds rarer units or linkages, { } end groups; capitals alone tell only the bases. e = 2'-O-(2-methoxyethyl) (MOE); k = constrained ethyl (cEt); [5mC] = 5-methylcytosine; d = 2'-deoxy (DNA)
Ranges used to classify YAP1 (% UTC): c1 (below 30 % UTC), c2 (30 % UTC to below 40 % UTC), c3 (40 % UTC or more)

Exam item: Which category does the recorded YAP1 (% UTC) put 1198390 (kA*dG*dG*dT*dA*dT*dA*dA*d[5mC]*dT*dG*kG*eG*k[5mC]*eA*kA; antisense) [Compound 1198390] in?
Marked response: c2

Exam item: Please do the same for 1198384 (kT*dA*dT*dT*dA*dG*dA*dG*dT*dA*dT*kG*eT*kG*eG*k[5mC]; antisense) [Compound 1198384] as well.
Marked response: c1

Exam item: What about 1198398 (kG*d[5mC]*dA*dC*dT*dT*dT*dT*dA*d[5mC]*dA*kT*eT*kA*eG*kG) [Compound 1198398] ?
Marked response: c1

Exam item: Try this substance next: 1198455 (kT*dT*dA*dG*dA*d[5mC]*dT*dA*dA*dG*dT*kA*eA*kG*eG*kT) [Compound 1198455]
Marked response: c3

Exam item: How about 1074461 (kG*kA*kA*dA*dT*dT*dG*dT*d[5mC]*dT*d[5mC]*dA*dT*kG*k[5mC]*k[5mC]) [Compound 1074461] ?
Marked response: c1

Exam item: // query: 1198429 (kA*dT*dT*dG*d[5mC]*dA*dA*dT*d[5mC]*dT*dG*kT*e[5mC]*kT*eG*kA; antisense) [Compound 1198429]
Marked response: c3

Exam item: Request: 1198424 (k[5mC]*dT*d[5mC]*dT*dT*dA*dT*dA*dT*dG*dG*kT*eT*kT*eT*kG; antisense) [Compound 1198424]
Marked response: c1

Exam item: Lookup 1198375 (kG*dG*dA*dA*dA*dT*dT*dG*dT*d[5mC]*dT*k[5mC]*eA*kT*eG*k[5mC]; antisense) [Compound 1198375]
Marked response: c1

Exam item: Query 1198397 (k[5mC]*dA*d[5mC]*dT*dT*dT*dT*dA*d[5mC]*dA*dT*kT*eA*kG*eG*kA; antisense) [Compound 1198397] next
Marked response: c1

Exam item: How about 1198379 (kA*dG*dT*dA*dT*dG*dT*dG*dG*d[5mC]*dA*kA*eT*kA*eA*kT) [Compound 1198379] ?
Marked response: c3

Exam item: And 1198421 (kT*dT*dA*dT*dA*dT*dG*dG*dT*dT*dT*kT*eG*kT*eG*kT; antisense) [Compound 1198421] ?
Marked response: c2

Exam item: 1198399 (kA*dG*d[5mC]*dA*d[5mC]*dT*dT*dT*dT*dA*d[5mC]*kA*eT*kT*eA*kG; antisense) [Compound 1198399] , same question.
Marked response: c2

Exam item: // query: 1198374 (kG*dA*dA*dA*dT*dT*dG*dT*d[5mC]*dT*d[5mC]*kA*eT*kG*e[5mC]*k[5mC]; antisense) [Compound 1198374]
Marked response: c1

Exam item: Another substance: 1198431 (kA*dA*dT*dA*dT*dT*dG*d[5mC]*dA*dA*dT*k[5mC]*eT*kG*eT*k[5mC]; antisense) [Compound 1198431]
Marked response: c2

Exam item: Now the substance 1095397 (antisense kT*dG*dA*dG*dG*dT*dA*dT*dA*dA*d[5mC]*kT*eG*kG*eG*k[5mC]) [Compound 1095397]
Marked response: c3

Exam item: What do you have for 1198448 (kA*dG*dT*dA*dA*dG*dG*dT*dT*dT*d[5mC]*k[5mC]*e[5mC]*kA*eG*kA) [Compound 1198448] ?
Marked response: c2

Exam item: Next up: 1198383 (kA*dT*dT*dA*dG*dA*dG*dT*dA*dT*dG*kT*eG*kG*e[5mC]*kA; antisense) [Compound 1198383]
Marked response: c2

Exam item: Subsequent entry: 1198403 (kT*dT*dG*dG*dA*dA*dG*dA*dT*d[5mC]*dT*kG*eA*kA*eA*k[5mC]) [Compound 1198403]
Marked response: c3

Exam item: Then 1198386 (kT*dA*dT*dA*dT*dT*dA*dG*dA*dG*dT*kA*eT*kG*eT*kG; antisense) [Compound 1198386] ?
Marked response: c3

Exam item: Item: 1198449 (kA*dA*dG*dT*dA*dA*dG*dG*dT*dT*dT*k[5mC]*e[5mC]*k[5mC]*eA*kG; antisense) [Compound 1198449]
Marked response: c2

Exam item: Same question for 1198391 (kG*dA*dG*dG*dT*dA*dT*dA*dA*d[5mC]*dT*kG*eG*kG*e[5mC]*kA) [Compound 1198391] please.
Marked response: c1

Exam item: Would you mind doing 1198410 (kA*dT*dA*dG*dT*dG*d[5mC]*dT*dT*dT*dG*kG*eA*kA*eG*kA; antisense) [Compound 1198410] as well?
Marked response: c3

Value source: patent US11214803B2
